Entries annotated with measured inhibition at 10 µM
- assay_target: Human IDO-1 (Homo sapiens, UniProt P14902)
- Sequence (P14902 whole entry): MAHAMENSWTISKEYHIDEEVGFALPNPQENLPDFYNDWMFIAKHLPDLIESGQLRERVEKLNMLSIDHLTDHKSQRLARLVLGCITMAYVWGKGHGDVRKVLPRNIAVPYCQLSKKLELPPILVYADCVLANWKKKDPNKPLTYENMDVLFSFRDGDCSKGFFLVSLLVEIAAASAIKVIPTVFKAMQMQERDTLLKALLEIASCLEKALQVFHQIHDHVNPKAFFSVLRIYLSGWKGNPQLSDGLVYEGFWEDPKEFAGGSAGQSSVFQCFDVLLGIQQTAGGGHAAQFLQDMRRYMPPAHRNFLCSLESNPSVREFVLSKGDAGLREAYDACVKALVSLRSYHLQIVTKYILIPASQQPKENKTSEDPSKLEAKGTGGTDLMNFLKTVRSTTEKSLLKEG
- assay_comment: IDO Kynurenine Assay with Human IDO1/HEK293 cells (Basal L-Kynurenine readout)
- Format: cell-based
- settings: HEK293; Primary SP; HEK Human IDO-1; 10 μM compound; read-out: Basal_L-Kynurenine (IDO1 % inhib @ 10 μM)

Illustrative cases are given below, each with its answer.
[
  {
    "structure": "CCNC(=O)Nc1cccc(CN2CC=C(c3cccc(N4CCCCC4)n3)CC2)c1",
    "measure_name": "inhibition at 10 µM",
    "result": "> 90%"
  },
  {
    "structure": "O=C(Nc1cccc(CN2CC=C(c3cccc(N4CCCCC4)n3)CC2)c1)NC1CC1",
    "measure_name": "inhibition at 10 µM",
    "result": "> 90%"
  },
  {
    "structure": "CCNC(=O)Nc1cccc(CN2CC=C(c3cccc(N4CCN(C)CC4)n3)CC2)c1",
    "measure_name": "inhibition at 10 µM",
    "result": "< 90%"
  },
  {
    "structure": "CN1CCN(c2cccc(C3=CCN(Cc4cccc(NC(=O)NC5CCCCC5)c4)CC3)n2)CC1",
    "measure_name": "inhibition at 10 µM",
    "result": "< 90%"
  },
  {
    "structure": "O=C(Nc1cccc(CN2CC=C(c3cccc(N4CCCCC4)n3)CC2)c1)NC1CCCCC1",
    "measure_name": "inhibition at 10 µM",
    "result": "> 90%"
  }
]

Look up and state reported inhibition at 10 µM for `CCNC(=O)Nc1cccc(CN2CC=C(c3cccc(N4CCOCC4)n3)CC2)c1` > 90%

Look up and state reported inhibition at 10 µM for `O=C(Nc1cccc(CN2CC=C(c3cccc(N4CCOCC4)n3)CC2)c1)NC1CCCCC1` > 90%

Look up and state reported inhibition at 10 µM for `CN1CCN(c2cccc(C3=CCN(Cc4cccc(NC(=O)NC5CC5)c4)CC3)n2)CC1` < 90%

---

- assay_target: Human IDO-1 (Homo sapiens)
- assay_comment: IDO Kynurenine Assay with Human IDO1/HEK293 cells (Basal L-Kynurenine readout)
- Assay type: cell-based
- settings: Primary CRC; HEK Human IDO-1; read-out: Basal_L-Kynurenine IDO1 Rel IC50
measure_name: IC50

[
  {
    "structure": "O=C(Nc1cccc(CN2CC=C(c3cccc(N4CCOCC4)n3)CC2)c1)NC1CCCCC1",
    "IC50": "< 2000 nM"
  },
  {
    "structure": "O=C(Nc1cccc(CN2CC=C(c3cccc(N4CCCCC4)n3)CC2)c1)NC1CCCCC1",
    "IC50": "< 2000 nM"
  },
  {
    "structure": "CCNC(=O)Nc1cccc(CN2CC=C(c3cccc(N4CCN(C)CC4)n3)CC2)c1",
    "IC50": "> 2000 nM"
  },
  {
    "structure": "CN1CCN(c2cccc(C3=CCN(Cc4cccc(NC(=O)NC5CC5)c4)CC3)n2)CC1",
    "IC50": "> 2000 nM"
  },
  {
    "structure": "O=C(Nc1cccc(CN2CC=C(c3cccc(N4CCCCC4)n3)CC2)c1)NC1CC1",
    "IC50": "< 2000 nM"
  }
]

Look up and state reported IC50 for `CN1CCN(c2cccc(C3=CCN(Cc4cccc(NC(=O)NC5CCCCC5)c4)CC3)n2)CC1` > 2000 nM

Look up and state reported IC50 for `CCNC(=O)Nc1cccc(CN2CC=C(c3cccc(N4CCOCC4)n3)CC2)c1` < 2000 nM

Look up and state reported IC50 for `CCNC(=O)Nc1cccc(CN2CC=C(c3cccc(N4CCCCC4)n3)CC2)c1` < 2000 nM

All values here come from patent US10858351B2.
